PBM E-score values for the sequences below.
Molecular target: Hmlalpha2 (UniProt P0CY09)
Sequence: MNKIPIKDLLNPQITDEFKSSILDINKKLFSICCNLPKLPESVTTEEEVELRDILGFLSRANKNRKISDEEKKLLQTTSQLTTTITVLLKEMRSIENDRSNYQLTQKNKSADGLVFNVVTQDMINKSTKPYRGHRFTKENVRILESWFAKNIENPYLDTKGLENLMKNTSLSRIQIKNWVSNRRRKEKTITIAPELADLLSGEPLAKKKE
Experiment: PBM E-score (8-mer binding enrichment) (E-score (-0.5 to 0.5)); higher = stronger / more preferred TF binding
Details: protein concentration: 200 nM; construct: GST-full length
Whole data set: some 33,000 sequences, median “E-score (-0.5 to 0.5)” near -0.04, cut for the highest 2% near 0.36. What follows is part of a selection rich in the highest values, with near analogues and random picks from the rest.
Measured Attribute: PBM E-score

GTTTTACA: 0.408
AGCACGAA: 0.167
TACATACA: 0.443
ACCTTGGC: -0.242
CATGTTTC: 0.333
AAACATCT: 0.202
CACATATA: 0.311
AACATACA: 0.368
AGTTTTAA: 0.169
GACGGTCA: -0.196
AACACGAC: 0.424
GACATACA: 0.315
AACACGAG: 0.377
TACACGAA: 0.456
CCACATGA: 0.109
AAACATGG: 0.349
GAACATGA: 0.31
GACATATA: 0.163
ACGAGCCA: 0.0562
ATGGGACG: -0.19
CATGTTGA: 0.477
GGTTTATA: 0.101
CACATACA: 0.33
GTTTTATA: 0.144

====

Target: Hmlalpha2 (UniProt P0CY09)
Sequence: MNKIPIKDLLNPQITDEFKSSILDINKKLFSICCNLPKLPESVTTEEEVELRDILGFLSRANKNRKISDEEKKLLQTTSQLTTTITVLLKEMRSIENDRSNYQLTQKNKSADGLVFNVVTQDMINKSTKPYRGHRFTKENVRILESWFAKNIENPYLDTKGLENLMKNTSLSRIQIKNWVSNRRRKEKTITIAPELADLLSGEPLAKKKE
Test: PBM E-score (8-mer binding enrichment) (E-score (-0.5 to 0.5)); higher = stronger / more preferred TF binding
Settings: protein concentration: 200 nM; construct: GST-full length
The full ranking holds about 33,000 sequences; the median of “E-score (-0.5 to 0.5)” is about -0.04, and the highest 2% start at about 0.36. Only a selection was taken, and the highest values are over-represented in it overall.
Use label 1 when the recorded PBM E-score is no lower than 0.2; use label 0 when it is lower.

CACACAAG: label 1
TAACTCGA: label 1
GATTACAC: label 1
GATTACCA: label 0
ACAATTTA: label 0
AACACAAC: label 1
CACACGTG: label 1
AATTACAA: label 1
GACACGTA: label 1
ACGATTCC: label 0
CAACACTA: label 0
AGGGGAGG: label 0
GATTACCC: label 0

====

Target: Hmlalpha2 (UniProt P0CY09)
Sequence: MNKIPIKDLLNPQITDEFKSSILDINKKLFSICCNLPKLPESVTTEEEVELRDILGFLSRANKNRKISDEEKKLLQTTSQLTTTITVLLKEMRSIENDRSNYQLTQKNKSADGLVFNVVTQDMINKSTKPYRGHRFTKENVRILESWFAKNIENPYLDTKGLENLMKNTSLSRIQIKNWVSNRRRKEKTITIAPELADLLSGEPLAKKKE
Assay: PBM E-score (8-mer binding enrichment) (E-score (-0.5 to 0.5)); higher = stronger / more preferred TF binding
Conditions: protein concentration: 200 nM; construct: GST-full length
Over roughly 33,000 sequences, “E-score (-0.5 to 0.5)” has its median near -0.04; the highest 2% begin near 0.36. The sample holds the highest values, similar sequences and a random draw of the others, so the mix is not that of the screen.
PBM E-score values for the sequences below.
Measured Attribute: PBM E-score

GAACTCTA: 0.123
ATGTAAGA: 0.433
CAGCTGTA: -0.117
GTAAACAA: 0.37
GCTTACAC: 0.362
GCGTAAGA: 0.249
CACGTAAG: 0.244
CCTCCCGC: -0.0916
GATATACA: 0.339
GTTGCGAA: 0.0227
ATTTAACC: 0.0603
AATGTAAG: 0.294
CGCTCTTA: 0.0692
CGAAGATA: -0.04
CTGGAACC: -0.109
CATGTAAG: 0.47
CGTCCACA: -0.0612
ATGGTCGA: -0.0159
ATATCTCG: -0.151
CTATGTTC: 0.252
CAGCTACC: -0.168
GCAAAACA: 0.135
ATGGTAGA: 0.079
GGATGTTA: 0.299
CACGTAAC: 0.196
CATGTAAC: 0.456
ACGCCCGG: -0.193
AAGCGTAT: 0.0488
CACATGTG: 0.163
TATATACA: 0.389
ATAACCAC: -0.0123
GCTATCAA: -0.0322
AAGACGAT: 0.0721
AAGAGGGA: -0.246
CATACACC: -0.076
GTATGCCA: -0.254
GTGTAAGA: 0.401
ATTTAACA: 0.429
CCCCGCAC: -0.201
AACATCTG: 0.128
ACACGCAG: 0.313

====

Molecular target: Hmlalpha2 (UniProt P0CY09)
Sequence: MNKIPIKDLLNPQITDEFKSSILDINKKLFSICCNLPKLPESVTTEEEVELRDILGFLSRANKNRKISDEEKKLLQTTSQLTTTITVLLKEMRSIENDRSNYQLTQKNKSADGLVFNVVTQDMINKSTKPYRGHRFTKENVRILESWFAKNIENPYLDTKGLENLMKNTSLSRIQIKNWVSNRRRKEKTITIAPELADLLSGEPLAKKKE
Assay: PBM E-score (8-mer binding enrichment) (E-score (-0.5 to 0.5)); higher = stronger / more preferred TF binding
Conditions: protein concentration: 200 nM; construct: GST-full length
Over roughly 33,000 sequences, “E-score (-0.5 to 0.5)” has its median near -0.04; the highest 2% begin near 0.36. This is one part of a sample in which the highest values are shown more often than they occur.
Measured Attribute: PBM E-score

ATCTACTC: 0.00965
CGCTATAA: -0.00727
ACTTTCGG: -0.0932
ATCTACAG: 0.151
ATTGCCCC: -0.315
AACCTCTC: -0.275
AGTTTACA: 0.405
ATCTACGC: 0.368
GGTTCTCA: -0.0328
CAAGTACA: 0.266
CGCATTAC: 0.214
AGATGCCA: -0.254
CCCGCCAC: -0.152
ATACATAG: 0.415
GACATGCA: 0.294
AACACGGA: 0.374
GGAAGCTA: -0.236
ACTCTGTA: 0.204
AGAATAGC: -0.15
CCAACCTC: -0.128
CTGAGGGC: -0.3
AAACATAG: 0.291
ACACTTGA: -0.0396
AGCTCTAT: -0.102
AATTACGC: 0.431
GACATGCC: 0.212
TGGTCCAA: -0.192
GCACATAA: 0.12
AAACCTCT: -0.08
ACTGTGTA: 0.443
GTACATAA: 0.377
GACACGGA: 0.224
GTGTGTAA: 0.465
ACACATAG: 0.282
TGAAGCAA: 0.0475
ATGCGTAC: 0.273
CTTGCTTC: 0.0506
AACACGGC: 0.359
CACACGGA: 0.0896
GTGCGTAA: 0.406
CCAAGTGC: -0.171
AATTACGG: -0.0144
ACTGTGTC: 0.174
AACACGGT: 0.402
ATCTACGA: 0.014
ATCTACAA: 0.307
CATGTTAG: 0.422
CCCTTTAC: 0.134
TGACATAA: 0.319
CCAATGCG: -0.181
AATTACGA: 0.338
ACGTCTGC: -0.182
GGACATAA: 0.05
GTCTACAC: 0.364
TACACGGA: 0.447

====

Target: Hmlalpha2 (UniProt P0CY09)
Sequence: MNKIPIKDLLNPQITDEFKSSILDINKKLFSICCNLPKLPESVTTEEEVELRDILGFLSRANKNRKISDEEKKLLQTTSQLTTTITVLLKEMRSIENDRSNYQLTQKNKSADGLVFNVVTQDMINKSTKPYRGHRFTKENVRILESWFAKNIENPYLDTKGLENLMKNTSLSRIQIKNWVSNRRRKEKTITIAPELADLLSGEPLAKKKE
Assay: PBM E-score (8-mer binding enrichment) (E-score (-0.5 to 0.5)); higher = stronger / more preferred TF binding
Settings: protein concentration: 200 nM; construct: GST-full length
The full ranking holds about 33,000 sequences; the median of “E-score (-0.5 to 0.5)” is about -0.04, and the highest 2% start at about 0.36. Many of the other results were omitted from the sample, so the highest values are more common in it than they were.
PBM E-score values for the sequences below.
Measured Attribute: PBM E-score

GCATGTTA: 0.464
GAAAATTC: -0.0326
GTGTACAC: 0.415
ATCGACCG: -0.223
CGATGTGA: 0.105
CTAGTTCA: 0.0551
AAATGTTG: 0.0925
